System: CCRF-CEM leukemia
experimentalDetails: NCI-60 one-dose screen, 48 h (100 = growth as untreated, 0 = no growth, -100 = all killed)
experimentalConditions: 10 µM unless noted
About 83,000 compounds went through this panel and 20% of them were active in at least one assay; those are over-represented in the sample as a whole.
Property: growth; scope: individual compounds
Just the number in %, nothing appended.

Examples with their reported growth follow.
COc1ccc(/C=C2/C(=O)Nc3cc(Cl)c(-c4csc(N)n4)cc32)cc1    31.7
CCN1CCN(Cc2ccc(NC(=O)Nc3cccc(-n4ccc5c(NC(=O)c6ccccc6)nccc54)c3)cc2C(F)(F)F)CC1    78.7

## Task Please supply the value of reported growth for the item "O=S1(=O)N(CCNc2nccc(-c3c(-c4cccc(O)c4)nc4sccn34)n2)CCN1Cc1ccccc1"
## Result 31.9

## Task Consider the compound "C#C[C@H](O)/C=C/CCCCCCC#C[C@H](O)CC[C@@H](O)C#CCCCCCC/C=C/[C@@H](O)C#C" . State its measured growth.
## Result -37.3

###

Tested on: IGROV1 ovarian
experimentalDetails: NCI-60 one-dose screen, 48 h
experimentalConditions: 10 µM unless noted
This is part of a sample that, as a whole, favours compounds with a hit. Of some 83,000 tested, about 20% had one in any assay. The source made the active and inactive calls. The calls were made as follows: active = growth percent below 10; inactive = the rest.
Answer with one of the outcomes given here: true (1) for active, false (0) for inactive

O=C(NOC1OC(CO)C(O)C(O)C1O)Nc1ccccc1 (centres undefined)    false (0)

## Task For this compound, state the assay outcome: "CO[C@H]1/C=C/C=C/C=C/C[C@H](OC(=O)[C@@H](C)NC(=O)C2CCCCC2)[C@H](C)[C@@H](O)/C(C)=C\CCC2=CC(=O)C=C(NC(=O)C1)C2=O"
## Result true (1)

## Task Look up the recorded call for "CC(C)Cn1cnc2c3ccccc3nc(NCn3nc(-c4cc(Cl)cc(Cl)c4Cl)oc3=S)c21" in this test.
## Result false (0)

## Task Status in this test for "COc1cc2c(cc1OC)-c1c(oc3c4c(ccc3c1=O)OC(C)(C)C=C4)CO2" ?
## Result false (0)

## Task # fetch the recorded call for "C=C1C(=O)O[C@H]2[C@H]1CC/C(COC(=O)c1ccc(Br)cc1)=C\CC[C@@]1(C)O[C@@H]21" here
## Result true (1)

## Task Tell me the assay call for "CCCOC(=O)c1ccc([N+](=O)[O-])o1" please.
## Result false (0)

## Task Kindly provide the recorded test outcome for the following compound: "OCc1cnccc1NC12CC3CC(CC(C3)C1)C2"
## Result false (0)

## Task Hi team, can someone confirm the assay call for "C=C1C(=O)O[C@H]2[C@H]1CC/C(C(=O)NCCOCCOCC(=O)Nc1ccc(OC)c(C(N)=O)c1O)=C\CC[C@@]1(C)O[C@@H]21" ?
## Result false (0)

## Task How was "CNC(=O)NN" classified in this test?
## Result false (0)

###

Test system: SF-295 CNS
experimentalDetails: NCI-60 one-dose screen, 48 h (100 = growth as untreated, 0 = no growth, -100 = all killed)
experimentalConditions: 10 µM unless noted
The panel holds about 83,000 compounds, 20% with a hit somewhere; the sample as a whole holds those more often.
Note to self: values exactly at 80% are YES. So growth at or above 80% is YES, below is NO.

CCCCCn1ncc(-c2c(O)c(O)cc3c(O)c(-c4c(C)cc5c(-c6cnn(CCCCC)n6)c(O)c(O)cc5c4O)c(C)cc23)n1    NO

## Task Could you please find out whether "C[C@H]1C=C(C[C@@H](O)CCCCCCCCCC[C@@H](O)[C@H]2CCC(=O)O2)C(=O)O1" has growth that meets 80% or exceeds it?
## Result YES

## Task Item "ClC1c2ccccc2CCc2ccccc21" with growth of 80% or above?
## Result YES
